System: NCI-H226 lung
Assay Details: NCI-60 one-dose screen, 48 h
Test Parameters: 10 µM unless noted
About 83,000 compounds went through this panel and 20% of them were active in at least one assay; those are over-represented in the sample as a whole. Calls of active or inactive are those of the source. Rule for the calls: active = growth percent below 10; inactive = the rest.
Possible outcomes: active, inactive

Molecule	Study Target	Assigned Label
O=C(N=c1n(-c2ccccc2)nc2n1CCN2C1=NCCN1)c1ccc(Cl)cc1	NCI-H226 lung	inactive
CC[C@]12C=CCN3CC[C@@]4(c5ccc(OC)cc5N(C)[C@H]4[C@@](O)(C(=O)OC)[C@@H]1OC(=O)CCC(=O)N[C@H](Cc1c[nH]c4ccccc14)C(=O)OC)[C@@H]32	NCI-H226 lung	active
COc1ccc2nc3c(cc2c1)C(=O)CC(C(F)(F)F)C3 (stereo unspecified)	NCI-H226 lung	inactive
CC(C)CCSC1=CC(=O)c2ccccc2C1=O	NCI-H226 lung	inactive
O=C1NC(=O)c2cc([N+](=O)[O-])cc3cccc1c23	NCI-H226 lung	inactive
CC1Cc2ccc(OCCN(C)C)cc2C1=O (stereo unspecified)	NCI-H226 lung	inactive

----------
System: OVCAR-5 ovarian
Assay Details: NCI-60 one-dose screen, 48 h (100 = growth as untreated, 0 = no growth, -100 = all killed)
Test Parameters: 10 µM unless noted
About 83,000 compounds went through this panel and 20% of them were active in at least one assay; those are over-represented in the sample as a whole. Activity calls are given as the source filed them. Rule for the calls: active = growth percent below 10; inactive = the rest.
Parameter Measured: growth

Compound	Reading
CCOC(=O)c1nn(C2CCCCO2)c2ccc(NC(=O)CSc3nc4ccccc4c(=O)[nH]3)cc12 (stereo not drawn)	115% (inactive)
CCCCNC(=O)NS(=O)(=O)Cc1ccccc1	108% (inactive)
O=C(Nc1ccc(F)cc1)c1ccccc1	105% (inactive)

----------
Test system: MDA-MB-435 melanoma
Assay Details: NCI-60 one-dose screen, 48 h
Test Parameters: 10 µM unless noted
This is part of a sample that, as a whole, favours compounds with a hit. Of some 83,000 tested, about 20% had one in any assay. Calls of active or inactive are those of the source. Rule for the calls: active = growth percent below 10; inactive = the rest.
Possible outcomes: active, inactive

Compound Structure	Study Target	Assigned Label
COc1ccc(-c2ccc(NNC(=O)c3ccc(F)cc3)nn2)cc1OC	MDA-MB-435 melanoma	inactive
Fc1ccc(NC(=S)c2ccccc2)cc1	MDA-MB-435 melanoma	inactive
CO[C@H]1CC[C@@]2(C)C(=CC[C@H]3[C@@H]4C[C@H](O)C[C@@]4(C)CC[C@@H]32)C1	MDA-MB-435 melanoma	active
CCN(CC)CCCCCCNc1cccc2cc(Br)cnc12	MDA-MB-435 melanoma	inactive
CC(=O)CC(=O)SC1=NCCS1	MDA-MB-435 melanoma	inactive

----------
Entries and their measured growth follow.
Tested on: T-47D breast
Assay Details: NCI-60 one-dose screen, 48 h (100 = growth as untreated, 0 = no growth, -100 = all killed)
Test Parameters: 10 µM unless noted
This is part of a sample that, as a whole, favours compounds with a hit. Of some 83,000 tested, about 20% had one in any assay.

Compound	Scale Unit	growth
COc1ccc(C(C(=O)O)c2ccc(OC)cc2)cc1	%	118
O=C(CCCCCCSc1nc(-c2ccc(Cl)cc2)cc(-c2ccc(Cl)cc2)n1)NO	%	13.2
Cc1ccc2c(c1)C(C)Cc1c(Cl)ncnc1N2C (centres undefined)	%	51.8
CC1=C/C(=C(\c2cc(C)c(O)c(C(=O)O)c2)c2c(Cl)cccc2Cl)C=C(C(=O)O)C1=O	%	98.3

----------
Test system: UO-31 renal
Assay Details: NCI-60 one-dose screen, 48 h (100 = growth as untreated, 0 = no growth, -100 = all killed)
Test Parameters: 10 µM unless noted
Compounds without any hit were thinned out: in the full panel of roughly 83,000, 20% have a hit.
Entries and their measured growth follow.
Parameter Measured: growth (%)

Compound Structure	Parameter Measured	Reading
COc1ccc(NC(=S)NNc2ccc(-c3ccc(OC)c(OC)c3)nn2)cc1	growth	83.3
CN(Cc1cccc(C(F)(F)F)c1)C(=O)[C@@H](CC(=O)N1CCC(N2CCCCC2)CC1)N1C(=O)[C@@H](N2C(=O)OC[C@@H]2c2ccccc2)[C@H]1/C=C/c1ccccc1	growth	83.4
CCCCCCCCCCCCCC[n+]1cccc(C(N)=O)c1	growth	62
CC1=C/C(=C(\c2cc(C)c(O)c(C(=O)O)c2)c2c(Cl)cccc2Cl)C=C(C(=O)O)C1=O	growth	67.8

----------
System: UO-31 renal
Assay Details: NCI-60 one-dose screen, 48 h
Test Parameters: 10 µM unless noted
The panel holds about 83,000 compounds, 20% with a hit somewhere; the sample as a whole holds those more often. Calls of active or inactive are those of the source. How the source made its calls: active means growth percent below 10; inactive means the rest.
Possible outcomes: class 1 = active, class 0 = inactive

Compound	Assigned Label
COc1cc(NCc2cn(-c3ccc(C(=O)O)cc3)nc2-c2ccc(C(=O)O)cc2)cc(OC)c1OC	class 0
CCN(CCNc1ccc(C)c2sc3cc(Cl)ccc3c(=O)c12)CC(C)O (centres undefined)	class 1
C1=C[C@H]2O[C@@H]1c1ccc3[nH]ccc3c12	class 0
Cc1c(Cn2cc(COc3ccc(Br)cc3)nn2)c(C)c(Cn2cc(COc3ccc(Br)cc3)nn2)c(C)c1Cn1cc(COc2ccc(Br)cc2)nn1	class 0
O=C(CCCCCCSc1nc(-c2ccc(Cl)cc2)cc(-c2ccc(Cl)cc2)n1)NO	class 1
C=C(C)[C@@H]1CC[C@]2(C(=O)OC)CC[C@]3(C)[C@H](CC[C@@H]4[C@@](C)(CCc5nn[nH]n5)[C@H](C(=C)C)CC[C@]43C)[C@@H]12	class 1
COc1ccc(N(c2nc(-c3ccc([N+](=O)[O-])cc3)cs2)C(C)C)cc1	class 0
CCOc1cccc2c(NC(C)CCCN(CC)CC)c(C)cnc12 (centres undefined)	class 0
COc1cccc(-c2[nH]c(=S)ncc2C(=O)c2ccccc2)c1	class 0
CC1(C)CC[C@]23CC[C@]4(C)[C@H](CC[C@@H]5[C@@]6(C)C/C(=C/c7cccnc7)C(=O)C(C)(C)[C@@H]6CC[C@]54C)[C@H]2[C@H]1OC3=O	class 0
O=C(NCCO)c1cccnc1	class 0
CCOC(=O)C(C(C)=O)c1nc2sc3cc(Cl)c(Cl)cc3n2c(=O)c1C#N (centres undefined)	class 0
N#C/C(C(=O)c1ccccc1)=C1/C(=O)Nc2ccc(F)cc21	class 0
CCn1cc(-c2ccnc(NCCNS(=O)(=O)c3ccc(Br)cc3)c2)c(-c2cccc(OC)c2)n1	class 0
Cc1nc(-c2ccccc2)sc1CC#N	class 0
C[n+]1c(-c2ccccc2)c2cc(N)ccc2c2ccccc21	class 0
CC(C)=CC/C=C(/C)[C@H]1CC[C@]2(C)[C@@H]1CC[C@@H]1[C@@]3(C)CC/C(=N/O)C(C)(C)[C@@H]3CC[C@]12C	class 0
O=C(Nc1ccc(Oc2ccc(F)cc2)c(Cl)c1)c1cccnn1	class 0
COc1c(C(C)=O)c(OCCCCOc2c(C(C)=O)c(OC)c3ccoc3c2OC)c(OC)c2occc12	class 0
CCN=C1C=CC(=C(c2ccc(N(CC)CC)cc2)c2ccc(N(CC)CC)cc2)c2ccccc21	class 1
CCCCOC(=O)c1c(C)[nH]c(/C=C2\N=C(c3ccc[nH]3)C=C2OC)c1C	class 1
C=CCCCCOc1ccccc1-c1cnc(OCCCCC=C)n1C	class 0
NC1=NC(=O)NC1(c1ccccc1)c1ccccc1	class 0
CC1(C(=O)O)CCC(N)(C(=O)O)C1(C)C (centres undefined)	class 0

----------
Tested on: COLO 205 colon
Assay Details: NCI-60 one-dose screen, 48 h
Test Parameters: 10 µM unless noted
Compounds without any hit were thinned out: in the full panel of roughly 83,000, 20% have a hit. Activity calls are given as the source filed them. How the source made its calls: active means growth percent below 10; inactive means the rest.
Possible outcomes: active, inactive

Compound	Assigned Label
COc1cc(-c2cc(-c3ccc(Nc4ncnc5cc(Cl)ccc45)cc3)nc(N3CCCCC3)n2)cc(OC)c1OC	inactive
CCN(CC)c1ccc2cc(C(Nc3ccc(C)cc3)c3nnnn3C(C)(C)C)c(=O)oc2c1 (stereo not given)	inactive
O=C(CCCCCCSc1nc(-c2ccc(Cl)cc2)cc(-c2ccc(Cl)cc2)n1)NO	inactive
O=C(C[n+]1ccn(CC(OCc2ccc(Cl)cc2Cl)c2ccc(Cl)cc2Cl)c1)c1ccc(F)cc1 (stereo not given)	active
CCOC(=O)c1nn(C2CCCCO2)c2ccc(NC(=O)CSc3nc4ccccc4c(=O)[nH]3)cc12 (stereo not given)	inactive
COc1cc2c(cc1OCCCCCOc1ccc(-n3c(C)nc4ccccc4c3=O)cc1)N=C[C@@H]1CCCN1C2=O	active
O=C(CSc1nc2ccc([N+](=O)[O-])cc2[nH]1)Nc1ccc(F)c(Cl)c1	inactive
Cc1ccc(N)c(O)c1	inactive
C=C(CN=[N+]=[N-])[C@@H]1CC[C@]2(C)[C@H](CC[C@@H]3[C@H]4[C@H]5OC(=O)[C@@]4(CCC5(C)C)CC[C@]32C)[C@@]1(C)CCC#N	inactive
CCOC(=O)/C(C#N)=C(\C)CCc1ccccc1	inactive
